# system_name: T1, Lag3 expressed on cells (recombinant CHO cells expressing Lag3; Lag3+ NFAT Jurkat effector cells) (human, UniProt P18627 29-525)
# T1 sequence: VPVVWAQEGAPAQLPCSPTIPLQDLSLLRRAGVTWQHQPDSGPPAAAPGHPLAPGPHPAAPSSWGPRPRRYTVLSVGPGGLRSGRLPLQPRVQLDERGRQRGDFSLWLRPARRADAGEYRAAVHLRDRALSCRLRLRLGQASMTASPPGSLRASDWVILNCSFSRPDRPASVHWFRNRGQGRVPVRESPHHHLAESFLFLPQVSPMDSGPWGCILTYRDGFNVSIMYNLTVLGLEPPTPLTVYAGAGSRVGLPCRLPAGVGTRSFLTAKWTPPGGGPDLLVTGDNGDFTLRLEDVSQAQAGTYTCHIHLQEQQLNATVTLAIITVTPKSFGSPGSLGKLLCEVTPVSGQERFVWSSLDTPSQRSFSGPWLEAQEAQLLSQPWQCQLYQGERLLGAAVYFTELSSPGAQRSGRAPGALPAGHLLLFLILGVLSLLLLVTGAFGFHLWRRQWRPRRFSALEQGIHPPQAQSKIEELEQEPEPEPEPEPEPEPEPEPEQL
# measurement_protocol: cell-based or functional assay
Listed next: entries and their corresponding EC50 [nM] in Jurkat LAG3 + SED + Raji, 2nd assay.
# value in nM; strip the unit string

binder	readout_units	assay_value
aLAG3(0416) (antibody, V domains shown, also called aLAG3 (416)) VH: EVQLVESGGGLVQPGGSLRLACAASGFTFSDYAMSWVRQAPGKGLEWVSGIDNSGYYTYYTDSVKGRFTISRDDVKNTLYLQMNSLRAEDTAVYLCTKTHSGLIVNDAFDIWGQGTMVTVSS VL: DIQLTQSPSSLSASVGDRVTITCRASQSISSYLNWYQQKPGKAPKLLIYDASSLESGVPSRFSGSGSGTDATLTISSLQPEDFATYYCQQSYSTPLTFGGGTKVEIK	nM	2.5
aLAG3(0411) (antibody, V domains shown, also called aLAG3 (411)) VH: EVHLLESGGGLVQPGGSLRLSCAASGFIVDDYTMNWVRQAPGKGLEWVSVISWDGGATYYADSVKGRFTISRDDFKNTLYLQMNSLRAEDTAVYYCAKGLTDDTLYGSDYWGQGTLVTVSS VL: DIQMTQSPSSLSASVGDRVTITCRASQSIVSYLNWYQQKPGKAPKLLIYASSSLQSGVPSRFSGSGSGTDFTLTISSLQPEDFATYYCQQTYSTPLTFGGGTKVEIK	nM	1

Now for the binder whose EC50 [nM] in Jurkat LAG3 + SED + Raji, 2nd assay we want.
Value of measured EC50 [nM] in Jurkat LAG3 + SED + Raji, 2nd assay for the entry humanized BAP050 (LAG525) (antibody, V domains shown) VH: QIQLVQSGPELKKPGETVKISCKASGFTLTNYGMNWVRQTPGKGLKWMGWINTDTGEPTYADDFKGRFAFSLETSASTASLQINNLKNADTATYFCARNPPYYYGTNNAEAMDYWGQGTTVTVSS VL: DIQMTQTTSSLSASLGDRVTISCSSSQDISNYLMWYQQKPDGTVKVLIYYTSTLHLGVPSRFSGSGSGTDYSLTISNLELEDIATYYCQQYYNLPWTFGQGTKVEIK : 22.6

The reported numbers originate from patent US20250313629A1.
